Reference source for all entries: patent US10821115B2

- SUBJECT OF TEST: recombinant human Mcl-1 (residues 171-327) / Bim interaction (Homo sapiens (Human))
- Sequence (Q07820 171-327): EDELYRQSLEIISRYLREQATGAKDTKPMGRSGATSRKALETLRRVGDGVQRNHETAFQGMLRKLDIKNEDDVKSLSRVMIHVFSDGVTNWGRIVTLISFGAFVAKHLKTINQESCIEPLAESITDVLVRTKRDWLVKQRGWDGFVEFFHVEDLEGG
- PROCEDURE DETAILS: biochemical
- Format: binding
- EXPERIMENTAL PARAMETERS: TR-FRET, Mcl-1(171-327) / biotin-Bim (51-76); read-out: Mcl-1 HTRF IC50
pIC50: −log10 of the molar value.
Threshold check on pIC50: at or above 9 gives 1, strictly below gives -1.

COMPOUND	CLASS NAME
COCC1(N(C)C(=O)C[C@]2(OC)/C=C/C[C@H](C)[C@@H](C)S(=O)(=O)NC(=O)c3ccc4c(c3)N(C[C@@H]3CC[C@H]32)C[C@@]2(CCCc3cc(Cl)ccc32)CO4)CC1	1
CN[C@@H]1C[C@H](C)[C@@H](C)S(=O)(=O)NC(=O)c2ccc3c(c2)N(C[C@@H]2CC[C@H]2[C@@](C)(O)C1)C[C@@]1(CCCc2cc(Cl)ccc21)CO3 [Example 100064]	-1
C[C@@H]1[C@@H](C)C/C=C/[C@@](O)(CC(=O)N2CCCC2)[C@@H]2CC[C@H]2CN2C[C@@]3(CCCc4cc(Cl)ccc43)COc3ccc(cc32)C(=O)NS1(=O)=O [Example 100252]	1
Cc1onc(C[C@]2(O)/C=C/C[C@H](C)[C@@H](C)S(=O)(=O)NC(=O)c3ccc4c(c3)N(C[C@@H]3CC[C@H]32)C[C@@]2(CCCc3cc(Cl)ccc32)CO4)c1C	1

Could you now look at the following compound, please?
Decide: pIC50 of `C[C@@H]1[C@@H](C)CCC[C@](C#N)(NC(=O)c2ccccc2)[C@@H]2CC[C@H]2CN2C[C@@]3(CCCc4cc(Cl)ccc43)COc3ccc(cc32)C(=O)NS1(=O)=O` >= 9?
-1
